Target: T1, mouse CD73 on transfected HEK cells (mouse, UniProt Q61503 29-551)
T1 construct: whole, on cells; also called murine CD73; gene ID 23959
T1 sequence (looked up): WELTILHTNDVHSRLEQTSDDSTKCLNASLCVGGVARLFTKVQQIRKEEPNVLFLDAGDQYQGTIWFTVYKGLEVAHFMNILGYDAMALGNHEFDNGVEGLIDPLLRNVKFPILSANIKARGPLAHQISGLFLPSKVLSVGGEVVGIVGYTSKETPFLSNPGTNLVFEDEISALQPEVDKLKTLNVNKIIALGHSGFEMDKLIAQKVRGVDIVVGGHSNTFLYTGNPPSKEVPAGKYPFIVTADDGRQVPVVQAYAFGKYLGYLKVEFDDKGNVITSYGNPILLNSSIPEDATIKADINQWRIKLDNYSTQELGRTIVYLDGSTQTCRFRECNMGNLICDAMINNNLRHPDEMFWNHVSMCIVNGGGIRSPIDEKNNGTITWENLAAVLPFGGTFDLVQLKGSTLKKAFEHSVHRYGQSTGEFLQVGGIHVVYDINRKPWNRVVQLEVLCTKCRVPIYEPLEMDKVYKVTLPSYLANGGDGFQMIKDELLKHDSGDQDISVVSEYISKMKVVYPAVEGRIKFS
Assay: specificity column, binding to human (h) and mouse (m) CD73

| BINDER | binding result |
| --- | --- |
| SB96 rabbit IgG hcAb (Fc fusion, VHH fused upstream of hinge and Fc of rabbit IgG; also called Nb-rbIgG hcAb SB96; not shown: hinge and Fc-domains of rabbit IgG) heavy: DVQLQASGGGLVQPGGSLRLSCTASGFTLDYLSIGWFRQVPGKEREGVSCINSSGGSTNYADSLKGRLTISRDNAKNTVYLQMNSLKPEDTAVYYCAAHKYYYCSNKVEVFDYWGQGTPVTVSS | binds |
| SB144 rabbit IgG hcAb (Fc fusion, not shown: hinge and Fc-domains of rabbit IgG) heavy: QVQLVESGGGLVQAGGSLRLSCAASGRTFSGSTMGWFRQAPGKERAFVAAIRWIGGTAKYGDSVKGRFTISIDNAKNTLYLQMNSLKPEDTAVYYCAATAGGPDYLGGRDIVYDYWGQGTQVTVSS | binds |
| SB121 rabbit IgG hcAb (Fc fusion, not shown: hinge and Fc-domains of rabbit IgG) heavy: QVQLQESGGGLVQAGGSLRLSCAASGSIGSIIAMGWYRQGPGKQRELVARMFTDDGSTNYDDSVKGRFTISRDSAGTTVYLQMNSLKPEDTAVYYCNAQRRWNAYWGPGTQVTVSS | binds |
